# Test system: NCI-H522
# TEST_DESCRIPTION: NCI tumour cell line growth inhibition, 48 h
Activity calls are given as the source filed them. No stated cut-off is given here; in the data, active = GI50 up to about 1.1 µM and inactive = higher.
Possible outcomes: active, inactive

MOLECULE	LABEL_CLASS
COc1ccc2c(c1)-c1c(c3cc(OC)ccc3n1CCN(C)C)CC2	inactive
COc1ccc(C2NC(=O)Nc3c2c(=O)oc2c3ccc3ccccc32)cc1 (centres undefined)	inactive
COc1cc([C@@H]2c3cc4c(cc3[C@@H](Nc3ccc([N+](=O)[O-])cc3C(=O)c3ccccc3)[C@H]3COC(=O)[C@H]23)OCO4)cc(OC)c1OC	active
O=[N+]([O-])c1cc(/C=N/C23CC4CC(CC(C4)C2)C3)ccc1Cl	inactive
CC1=N/C(=C\c2ccc(/C=C3/N=C(C)OC3=O)cc2)C(=O)O1	inactive
Nc1nc(Cl)cc(NCCCCCNc2cc(Cl)nc(N)n2)n1	inactive
O=[N+]([O-])c1ccc(/C(=N/c2ccccc2)SS/C(=N\c2ccccc2)c2ccc([N+](=O)[O-])o2)o1	active
COC(=O)C1(C(=O)OC)CC2=C(S(=O)(=O)c3ccccc3)C[C@@H](C#N)[C@H]2C1	inactive
CC(C)NC(=O)OCc1c(COC(=O)NC(C)C)n(C)c2c1ccc1ccsc12	inactive
COc1cc(OC)c2nc(C)c(CCCl)c(Cl)c2c1	inactive
O=C(CC1(O)C(=O)Nc2c(Cl)cc(Cl)cc21)c1ccc2ccccc2c1 (centres undefined)	inactive
CC1(C)OC2OC(/C=C/[N+](=O)[O-])C3OC(C)(C)OC3C2O1 (centres undefined)	inactive
CC(=O)/C=C/CCC(=O)/C=C/C(=O)OC(CCC(=O)/C=C/C(=O)O)CC(C)=O (centres undefined)	inactive
COC1CC(OC2C(C)OC(OC3C(C)OC(OC4C(C)OC(O[C@H]5CC[C@@]6(C)C(=CC[C@]7(O)[C@@H]6C[C@@H](OC(=O)/C=C(\C)C(C)C)[C@@]6(C)[C@]7(O)CC[C@@]6(O)C(C)=O)C5)CC4OC)CC3OC)CC2OC)OC(C)C1O (some centres undefined)	inactive
Cc1ccc(S(=O)(=O)OI(O)CC(F)(F)F)cc1	inactive
COc1ccc2c(c1)CC1c3c(ccc(OC)c3O)CC2N1C (centres undefined)	inactive
CCCC1NC(C#N)(C#N)C(CCC)NC1(C#N)C#N (centres undefined)	active
O=C(O)c1cc2c(cc1CC(Cc1ccc3c(c1)CCCC3)C(=O)O)CCCC2 (centres undefined)	inactive
CC1=CC23C(COC(=O)C24CO4)C(C(=O)O)=CC3C1C (centres undefined)	inactive
CCSCCCSCCSCC	inactive
O=C(O)c1ccccc1/N=C/c1ccc(N(CCCl)CCCl)cc1	inactive
CC(=O)Oc1ccc(-c2c(OC(C)=O)c(OC(C)=O)c(-c3ccc(OC(C)=O)c(OC(C)=O)c3)c(OC(C)=O)c2OC(C)=O)cc1	inactive
COC(=O)[C@]12CCC(C)(C)C[C@H]1C1=CC[C@@H]3[C@@]4(C)CC[C@H](OC5OC(CO)C(O)C(O)C5OC5OC(CO)C(O)C(O)C5O)C(C)(C)[C@@H]4CC[C@@]3(C)[C@]1(C)CC2 (some centres undefined)	inactive
COc1ccc(C(F)(F)F)cc1NC(=O)O/N=C(/Cl)C(C)C	inactive

---

# Tested on: COLO 205
# TEST_DESCRIPTION: NCI tumour cell line growth inhibition, 48 h
Calls of active or inactive are those of the source. No stated cut-off is given here; in the data, active = GI50 up to about 1.1 µM and inactive = higher.
Listing of recorded GI50 by entry.

COMPOUND	GI50
COc1cc2c3cc1Oc1cc(ccc1O)C[C@@H]1c4c(cc(OC)c(O)c4Oc4ccc(cc4)C[C@@H]3N(C)CC2)CC[N+]1(C)C	77.1 µM (inactive)
O=[N+]([O-])c1ccc(NC2OCC(O)C(O)C2O)cc1 (stereo not given)	> 100 µM (inactive)
COc1cccc(N2C(=O)c3c(c4[nH]c5ccccc5c4c4ccc(C(C)(C)C)cc34)C2=O)c1	> 100 µM (inactive)
COC(=O)c1cc2ccc(N)nc2[nH]c1=O	> 100 µM (inactive)
COc1ccc(C(=O)O)c(Cc2ccc3ccccc3c2)c1	> 100 µM (inactive)
CCOC(=O)c1sc2nc(SC)nc3c2c1NCN3c1ccccc1Cl	> 100 µM (inactive)
Cc1ccc(/N=N/C(=N/c2ccccc2)c2ccc(N(CCC#N)CCC#N)cc2)cc1	21.7 µM (inactive)
CCC1OC2C(CC=C(C)C)=C3OC(C)(O)C(C)(CC)C(O)C3=C3OC(=O)C=C1C32 (stereo not given)	29.9 µM (inactive)
CC1(C)OC2OC(/C=C/[N+](=O)[O-])C3OC(C)(C)OC3C2O1 (stereo not given)	4.6 µM (inactive)
O=C(O)c1ccccc1Sc1ccccc1[N+](=O)[O-]	> 100 µM (inactive)
Cn1cc(NC(=O)Nc2cc(C(=O)Nc3cc(C(=O)Nc4cc(S(=O)(=O)O)c5cc(S(=O)(=O)O)cc(S(=O)(=O)O)c5c4)n(C)c3)n(C)c2)cc1C(=O)Nc1cc(C(=O)Nc2cc(S(=O)(=O)O)c3cc(S(=O)(=O)O)cc(S(=O)(=O)O)c3c2)n(C)c1	> 100 µM (inactive)
CC[C@H](C)[C@H]1NC(=O)C(C(C)=O)=C1O	> 100 µM (inactive)
NC1=CN(CCCO)C2=N/C(=C\c3ccccc3)C(=O)N12	> 100 µM (inactive)
O=C(CC1(O)C(=O)Nc2c(Cl)cc(Cl)cc21)c1ccc2ccccc2c1 (stereo not given)	8.79 µM (inactive)
CCOC(=O)N1CCC2(CC1)C[C@](Sc1ccccc1)(C(C)=O)[C@H](C)O2	> 100 µM (inactive)
COc1c(C)c2c(c3c1c(=O)c1ccccc1n3C)C=CC(C)(C)O2	30.7 µM (inactive)
Nc1nc(Cl)cc(NCCCCCNc2cc(Cl)nc(N)n2)n1	> 100 µM (inactive)
CC1Cc2c(N)nc(NN)nc2NC1=O (stereo not given)	> 100 µM (inactive)
[N-]=[N+]=Nc1cc(=O)n(-c2ccccc2)c2ccccc12	> 100 µM (inactive)
CC[N+](C)(CC)CC(C)(C)C(=O)/C=C/c1ccc(/C=C/C(=O)C(C)(C)C[N+](C)(CC)CC)cc1	> 100 µM (inactive)
